- SUBJECT OF TEST: Gastrin/cholecystokinin type B receptor (Cavia porcellus)
- ASSAY DETAILS: Binding affinity against cholecystokinin type B receptor on guinea pig cortex.
Square brackets hold non-standard residues; d marks the D form. Peptide text beside a SMILES is read from it. * marks the point of attachment. NMeNle = CCCC[C@H](NC)C(=O)O; Boc = CC(C)(C)OC(=O)*
ASSAY READOUT: pKi
Remember the convention: pKi equals -log10 of concentration in molar.

Q: Notebook entry, Gastrin/cholecystokinin type B receptor (Cavia porcellus) assay: pKi of CCCC[C@@H](C(=O)N[C@@H](CC(=O)O)C(=O)N[C@@H](Cc1ccccc1)C(N)=O)N(C)C(=O)[C@H](Cc1c[nH]c2ccccc12)NC(=O)OC(C)(C)C (Boc-W[NMeNle]DF-NH2) = ?
A: 9.10

----------
// endpoint Ki / system Cholecystokinin receptor type A (Cavia porcellus)
Square brackets hold non-standard residues; d marks the D form. Peptide text beside a SMILES is read from it. * marks the point of attachment. NMeNle = CCCC[C@H](NC)C(=O)O; Malonamoyl = NC(=O)CC(=O)*
Numbers only here, please. The scale is µM.

Q: // query Ki value for entry CCCC[C@@H](C(=O)N[C@@H](CC(=O)O)C(=O)N[C@@H](Cc1ccccc1)C(N)=O)N(C)C(=O)[C@H](Cc1c[nH]c2ccccc12)NC(=O)CC(N)=O (Malonamoyl-W[NMeNle]DF-NH2)
A: 22.8

Q: Entry to check: `C[C@@]1(Cc2c[nH]c3ccccc23)NC(=O)CCCCCCC[C@@H](C(=O)N[C@@H](CC(=O)O)C(=O)N[C@@H](Cc2ccccc2)C(N)=O)NC1=O`
A: 2.21

----------
- SUBJECT OF TEST: Gastrin/cholecystokinin type B receptor (Rattus norvegicus, UniProt P30553)
- Sequence (P30553 whole entry): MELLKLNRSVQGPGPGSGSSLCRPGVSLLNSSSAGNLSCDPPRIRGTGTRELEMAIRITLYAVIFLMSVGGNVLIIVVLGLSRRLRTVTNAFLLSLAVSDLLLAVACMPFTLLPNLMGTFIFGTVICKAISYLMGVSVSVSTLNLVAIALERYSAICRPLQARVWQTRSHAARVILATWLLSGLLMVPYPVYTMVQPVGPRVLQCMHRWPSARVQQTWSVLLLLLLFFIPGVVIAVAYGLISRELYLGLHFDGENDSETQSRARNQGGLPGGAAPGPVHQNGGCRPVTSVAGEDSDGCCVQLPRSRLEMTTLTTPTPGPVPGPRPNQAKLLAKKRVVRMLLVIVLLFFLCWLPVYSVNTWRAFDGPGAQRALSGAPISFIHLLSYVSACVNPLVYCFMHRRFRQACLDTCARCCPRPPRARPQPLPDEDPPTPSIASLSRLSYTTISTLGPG
Square brackets hold non-standard residues; d marks the D form. Peptide text beside a SMILES is read from it. * marks the point of attachment. NMeNle = CCCC[C@H](NC)C(=O)O; Boc = CC(C)(C)OC(=O)*
ASSAY READOUT: Ki (nM)
State the answer as a number, implicitly in nM.

Q: Consider the compound shown here: CCCC[C@@H](C(=O)N[C@@H](CC(=O)O)C(=O)N[C@@H](Cc1ccccc1)C(N)=O)N(C)C(=O)[C@H](Cc1c[nH]c2ccccc12)NC(=O)OC(C)(C)C (Boc-W[NMeNle]DF-NH2) What is its recorded Ki?
A: 2.6

----------
pKi: −log10 of the molar value. Numbered stars: 1 amine (or outer) side, 2 acyl side, 3 side chain; on linkers, the order of the positions; unused ones are H or OH. Square brackets hold non-standard residues; d marks the D form. Peptide text beside a SMILES is read from it. * marks the point of attachment. NMeNle = CCCC[C@H](NC)C(=O)O; Suc = O=C(CCC(=O)[*:2])[*:1]; Boc = CC(C)(C)OC(=O)*; βAla = NCCC(=O)O
// pKi collected for Cholecystokinin receptor type A (Cavia porcellus)

Q: What measured pKi goes with CCCC[C@@H](C(=O)N[C@@H](CC(=O)O)C(=O)N[C@@H](Cc1ccccc1)C(N)=O)N(C)C(=O)[C@H](Cc1c[nH]c2ccccc12)NC(=O)CCC(=O)O (Suc-W[NMeNle]DF-NH2) ?
A: < 5.52

Q: Do the same for CCCC[C@@H](C(=O)N[C@@H](CC(=O)O)C(=O)N[C@@H](Cc1ccccc1)C(N)=O)N(C)C(=O)[C@H](Cc1c[nH]c2ccccc12)NC(=O)CCNC(=O)OC(C)(C)C ({Boc-βAla}-W[NMeNle]DF-NH2) please
A: 5.34

Q: Next entry: CCCC[C@@H](C(=O)N[C@@H](CC(=O)O)C(=O)N[C@@H](Cc1ccccc1)C(N)=O)N(C)C(=O)[C@H](Cc1c[nH]c2ccccc12)NC(=O)OC(C)(C)C (Boc-W[NMeNle]DF-NH2)
A: < 5.30

----------
- SUBJECT OF TEST: Cholecystokinin receptor type A (Cavia porcellus)
- Sequence (Q63931 whole entry): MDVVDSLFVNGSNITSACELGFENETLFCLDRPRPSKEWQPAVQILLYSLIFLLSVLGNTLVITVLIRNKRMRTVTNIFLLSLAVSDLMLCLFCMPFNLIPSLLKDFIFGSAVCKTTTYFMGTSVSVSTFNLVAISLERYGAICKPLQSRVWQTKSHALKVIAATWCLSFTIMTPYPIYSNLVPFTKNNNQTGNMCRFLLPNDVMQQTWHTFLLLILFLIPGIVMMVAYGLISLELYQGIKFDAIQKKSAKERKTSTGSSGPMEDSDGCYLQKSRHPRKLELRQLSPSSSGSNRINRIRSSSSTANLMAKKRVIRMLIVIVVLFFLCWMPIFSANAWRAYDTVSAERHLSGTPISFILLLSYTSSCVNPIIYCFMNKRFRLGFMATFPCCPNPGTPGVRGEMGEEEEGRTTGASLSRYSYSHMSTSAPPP
Square brackets hold non-standard residues; d marks the D form. Peptide text beside a SMILES is read from it. NMeNle = CCCC[C@H](NC)C(=O)O
Exercise: for every item that follows, state its recorded Ki.

Q: Give its Ki value. Item: CCCC[C@@H](C(=O)N[C@@H](CC(=O)O)C(=O)N[C@@H](Cc1ccccc1)C(N)=O)N(C)C(=O)[C@H](Cc1c[nH]c2ccccc12)NC(=O)CN (H-GW[NMeNle]DF-NH2)
A: > 3000 nM

Q: Subsequent entry: CCCC[C@@H](C(=O)N[C@@H](CC(=O)O)C(=O)N[C@@H](Cc1ccccc1)C(N)=O)N(C)C(=O)[C@@H](N)Cc1c[nH]c2ccccc12 (H-W[NMeNle]DF-NH2)
A: > 3000 nM

Q: Check `CCCC[C@@H](C(=O)N[C@@H](CC(=O)O)C(=O)N[C@@H](Cc1ccccc1)C(N)=O)N(C)C(=O)[C@H](Cc1c[nH]c2ccccc12)NC(=O)[C@H](C)N` too.
A: > 3000 nM
